assayed target: AMP-activated protein kinase, AMPK (Homo sapiens) (UniProt P54646+O43741+P54619+Q9UGJ0+Q9Y478+Q13131+Q9UGI9)
assay overview: AMP-dependent Kinase enzyme assay. An in vitro enzyme assay that detects ADP turnover that is directly proportional to AMPK activity. This uses naive AMPK that is activated during the assay with MK-8722
Format: functional
Set-up: scale not given: direction of the effect not stated beside the values
condition context: 30 µM
measure: Percent Effect (%)
Answers are plain numbers, in %.

Past entries and their recorded results:
Can you look up the measured Percent Effect of CCc1cc(=O)n(CCNC(=O)Nc2ccc(OC(F)(F)F)cc2)cn1 for me? -3.24

Would you kindly repeat that for Cc1nccn1CCCN1CCCC(c2nccn2C)C1 (stereo unspecified) ? -14.7

Would you kindly repeat that for Cc1nonc1CN1CC[C@@](O)(C2CCOCC2)[C@H](C)C1 ? -6.73

Would you kindly repeat that for Cc1ccccc1S(=O)(=O)N[C@@H]1CC[C@@H](N2CCNC(=O)C2)[C@@H]1O ? 5.3

Would you kindly repeat that for COc1ncc(NCc2cccc(C#N)c2)cc1C(N)=O ? 8.6

Fill in Percent Effect for each of the 6 compounds listed.
1. O=c1ccc(S(=O)(=O)N2CCCC2)cn1CC1CCCCO1 (stereo unspecified)
2. O=C(c1cncc(NCC2COc3ccccc3C2)n1)N1CCCC1 (stereo unspecified)
3. COc1nc2c(cc1C(=O)NC(C)Cc1cc(C)n[nH]1)CCC2 (stereo unspecified)
4. COCCC1(C(=O)O)CCN(c2cc(C)c3ccccc3n2)CC1
5. Cc1cc(C)nc(NC2CC(=O)N(C)C2)n1 (stereo unspecified)
6. CN(Cc1n[nH]c2c1CCCCC2)C(=O)c1cc(-c2cccn2C)n[nH]1

1: 6.91; 2: 8.04; 3: -15.8; 4: 3.32; 5: -3.57; 6: 12.8

###

assayed target: AMP-activated protein kinase, AMPK (Homo sapiens) (UniProt P54646+O43741+P54619+Q9UGJ0+Q9Y478+Q13131+Q9UGI9)
assay overview: AMP-dependent Kinase enzyme assay. An in vitro enzyme assay that detects ADP turnover that is directly proportional to AMPK activity. This uses naive AMPK that is activated during the assay with MK-8722
Assay type: functional
Design: scale not given: direction of the effect not stated beside the values
condition context: 30 µM
Would you mind telling me the reported Percent Effect of each entry?

Can you look up the measured Percent Effect of Cc1c(C(=O)N(C)C)cccc1N(C)S(C)(=O)=O for me? 11.2%

Would you kindly repeat that for O=S1(=O)NC(C2CCCN(S(=O)(=O)N3CCCC3)C2)=Nc2ccccc21 (stereo unspecified) ? 13.9%

Would you kindly repeat that for Cc1csc(C(=O)N2CC(S(=O)(=O)C3CCCCC3)C2)c1 ? -2.28%

Would you kindly repeat that for Cc1ncccc1CNC(CCO)C1CCCCC1 (stereo unspecified) ? -0.143%

Would you kindly repeat that for CC1(C)Cc2nc(C(C)(C)C)ncc2C(NC(=O)Cc2nnn[nH]2)C1 (stereo unspecified) ? -20.8%

Would you kindly repeat that for CNc1cc2c(nn1)CCN(C(=O)c1ccc(-n3cccn3)nc1)C2 ? -15.7%

Fill in Percent Effect for each of the 5 compounds listed.
1. O=C(NCCc1cc(N2CCOCC2)nc(NC2CC2)n1)C1CCCO1 (stereo unspecified)
2. CCCC(C#N)NC(=O)c1sccc1CC (stereo unspecified)
3. COC(=O)C1CCN(C(=O)Cn2ccc(-c3ccsc3)n2)CC1
4. CC(C)[C@H]1CN(Cc2nccn2C)C[C@@H]1NC(=O)CCS(C)(=O)=O
5. CN1CCCN(c2ccc(F)cc2CNC(=O)c2ccsc2)CC1

["-0.703%", "6.7%", "-3.29%", "1.59%", "5.4%"]

###

assayed target: AMP-activated protein kinase, AMPK (Homo sapiens) (UniProt P54646+O43741+P54619+Q9UGJ0+Q9Y478+Q13131+Q9UGI9)
assay overview: AMP-dependent Kinase enzyme assay. An in vitro enzyme assay that detects ADP turnover that is directly proportional to AMPK activity. This uses naive AMPK that is activated during the assay with MK-8722
Format: functional
Parameters: scale not given: direction of the effect not stated beside the values
condition context: 30 µM
Would you mind telling me the reported Percent Effect of each entry?
Answers are plain numbers, in %.

Can you look up the measured Percent Effect of CC(C)(CN1CCC2(CCNCC2)CC1)N1CCOCC1 for me? 0.354

Would you kindly repeat that for CC(C)c1nc(CC(=O)Nc2cnccc2O)cs1 ? -1.17

Would you kindly repeat that for Cc1nc[nH]c1CN(C)Cc1cnn(-c2ccc(F)cc2)c1 ? 10.8

Fill in Percent Effect for each of the 4 compounds listed.
1. CCc1noc(CN2CCN(C(=O)OC(C)(C)C)C(C)C2)n1 (centres undefined)
2. Fc1ccccc1OC1CCN(CCn2cc3ccccc3n2)CC1
3. CCOC(=O)NC1CCCN(c2cncc(Br)c2)C1 (centres undefined)
4. COc1ccc(C(=O)NC2CCN(c3ncccn3)CC2)cc1F

1: 6.06; 2: 6.19; 3: 15.7; 4: -7.58

Fill in Percent Effect for each of the 2 compounds listed.
1. Cc1noc(C)c1CC(=O)N1CCCC(n2ccnc2C)C1 (centres undefined)
2. CN(CCCC1CCCO1)C(=O)c1cccc(C#N)c1 (centres undefined)

1: -4.43; 2: 10.9

Fill in Percent Effect for each of the 5 compounds listed.
1. CNC(=O)Cc1ccccc1NC(=O)N[C@H]1c2ccccc2C[C@H]1O
2. CNC(=O)c1cn2cc(-c3ccc(F)cc3)n(CC=C(C)C)c(=O)c2n1
3. O=C(NCc1cccnc1N1CCCCC1)c1ccc2[nH]nnc2c1
4. CC(OCC1CC1)C(=O)Nc1cccc(C(=O)Nc2ccccn2)c1 (centres undefined)
5. CN(c1ncc(S(N)(=O)=O)s1)C1CCc2ccccc21 (centres undefined)

0.934
3.81
-9.59
23.1
8.8

Fill in Percent Effect for each of the 3 compounds listed.
1. COc1ccc(Oc2cc(CN)ccn2)cc1
2. CN(CCc1ccccc1)Cc1c(C2CCOCC2)[nH]c2ncccc12
3. CC(C)N1CCC(CC(=O)NCc2cc(O)ncn2)CC1

1: -36.1; 2: 11.1; 3: -3.46

Fill in Percent Effect for each of the 4 compounds listed.
1. Cc1nn2cccnc2c1C(=O)NCc1ccnc(OCC2CC2)c1
2. CC(O)CN1CCN(Cc2coc(-c3ccccc3)n2)CC1 (centres undefined)
3. COc1nccc(N2CC[C@H](CO)[C@@H](O)C2)c1C#N
4. CCNC(=O)c1ccc(NC(=O)N(C)Cc2cc(C)on2)c(C)c1

1. 4.11
2. -7.2
3. -6.05
4. 10.2

Fill in Percent Effect for each of the 3 compounds listed.
1. O=C1CN([C@@H]2CC[C@@H](NS(=O)(=O)c3ccccc3F)[C@H]2O)CCN1
2. Cc1cc(C(=O)N2CCNC(=O)C2)c(C)n1CC(F)(F)F
3. Cc1cncnc1C1CCN(C(=O)C2(C)CCCCN2C)CC1 (centres undefined)

-4.46
1.02
17

###

assayed target: AMP-activated protein kinase, AMPK (Homo sapiens) (UniProt P54646+O43741+P54619+Q9UGJ0+Q9Y478+Q13131+Q9UGI9)
assay overview: AMP-dependent Kinase enzyme assay. An in vitro enzyme assay that detects ADP turnover that is directly proportional to AMPK activity. This uses naive AMPK that is activated during the assay with MK-8722
Format: functional
Parameters: scale not given: direction of the effect not stated beside the values
condition context: 30 µM
measure: Percent Effect
Answer with the number, then the unit.

Past entries and their recorded results:
Can you look up the measured Percent Effect of CC[C@@H](CO)NC(=O)c1cc(COc2ccc(OC)cc2Cl)[nH]n1 for me? -0.681%

Would you kindly repeat that for N#CC1COCCN1C(=O)c1cccc2cc[nH]c12 (stereo unspecified) ? 5.13%

Would you kindly repeat that for CC(C)Oc1cccc(F)c1C(C(=O)O)N1CCCN(C)CC1 (stereo unspecified) ? 3.49%

Fill in Percent Effect for each of the 5 compounds listed.
1. CCC(CN1CCCC1)n1cncc1-c1cnn(-c2ccc(F)cc2)c1 (stereo unspecified)
2. CCN(CC)S(=O)(=O)NCC1Cc2ccccc2O1 (stereo unspecified)
3. CC1CCC(O)(CSc2nnnn2C)CC1 (stereo unspecified)
4. CC1(C)Cc2nc(C(C)(C)C)ncc2C(NC(=O)C2(N)CC2)C1 (stereo unspecified)
5. C[C@@H]1CN(C(=O)C2(Cn3cccn3)CC2)CC[C@@]1(O)C1CCOCC1

["12.9%", "-0.544%", "3.45%", "-16.9%", "6.2%"]

###

Would you mind telling me the reported Percent Effect of each entry?
assayed target: Arginase-2, mitochondrial (Homo sapiens)
assay overview: in vitro enzyme assay to detect the production of urea directly proportional to the activity of Arginase II; also: in the data most compounds retested in dose-response had high values
Format: functional
Set-up: scale not given: direction of the effect not stated beside the values
condition context: 33.3 µM
One number for each entry, in %.

Fill in Percent Effect for each of the 3 molecules listed.
1. CCC1CN(C(=O)c2ccccc2N2CCCC2)CCN1C(C)C (stereo unspecified)
2. CCS(=O)(=O)N1CCC2(CC1)CN(Cc1ccccn1)C(=O)CO2
3. COc1ccc(C[C@H]2CN(C(=O)c3ccncc3)CC[C@@H]2OC)cc1

-5.94
1.62
-11.4
